- System: 227483-062-R1-J1-PDC complex spheroids with HUVEC/MSC, viability
- assay.explanation: Anticancer human tumor 227483-062-R1-J1-PDC patient-derived pancreatic carcinoma cell line growth inhibition [CLK]
- assay.setup: second compound 3.16 µM; first compound 1 µM; hits give low values
reported.property: viability, T/C

>>> value_measured("CCc1c2c(nc3ccc(O)cc13)-c1cc3c(c(=O)n1C2)COC(=O)[C@]3(O)CC + CNC(=O)c1ccc(Nc2nc(OC3CCCC3)c3c(-c4ccc5nc(C)oc5c4)c[nH]c3n2)c(OC)c1")
"2.02%"
>>> value_measured("CC(CO)NC(=O)c1cc(-c2ccc(Cl)cc2)nn(-c2cnn(C)c2)c1=O (stereo not given) + CNC(=O)c1ccc(Nc2nc(OC3CCCC3)c3c(-c4ccc5nc(C)oc5c4)c[nH]c3n2)c(OC)c1")
"45.5%"
>>> value_measured("COC1C=CCC(C)C(C)S(=O)(=O)NC(=O)c2ccc3c(c2)N(CC2CCC21)CC1(CCCc2cc(Cl)ccc21)CO3 (stereo not given) + CNC(=O)c1ccc(Nc2nc(OC3CCCC3)c3c(-c4ccc5nc(C)oc5c4)c[nH]c3n2)c(OC)c1")
"17.7%"
>>> value_measured("O=c1[nH]cc(F)c(=O)[nH]1 + CNC(=O)c1ccc(Nc2nc(OC3CCCC3)c3c(-c4ccc5nc(C)oc5c4)c[nH]c3n2)c(OC)c1")
"26.4%"
>>> value_measured("CC(Nc1ccc2c(c1)OCCn1cc(N3C(=O)OCC3C(F)F)nc1-2)C(N)=O (stereo not given) + CN1CCN(c2cc(C(=O)Nc3cc4cc(-c5cnn(C)c5)ccc4cn3)ccn2)CC1")
"2.9%"

====

- Tested on: 227483-062-R1-J1-PDC complex spheroids with HUVEC/MSC, viability
- assay.explanation: Anticancer human tumor 227483-062-R1-J1-PDC cell line growth inhibition [CLK];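 note: spheroids exposed to compounds for seven days before readout; percent of DMSO vehicle control luminescence as 100% viability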
- assay.setup: second compound 3.16 µM; first compound 0.00316 µM; hits give low values
Reported viability, T/C values follow for various compounds
reported.property: viability, T/C (%)

>>> value_measured("Cn1ncnc1[C@H]1c2n[nH]c(=O)c3cc(F)cc(c23)N[C@@H]1c1ccc(F)cc1 + CNC(=O)c1ccc(Nc2nc(OC3CCCC3)c3c(-c4ccc5nc(C)oc5c4)c[nH]c3n2)c(OC)c1")
51.2
>>> value_measured("CCc1c2c(nc3ccc(O)cc13)-c1cc3c(c(=O)n1C2)COC(=O)[C@]3(O)CC + CNC(=O)c1ccc(Nc2nc(OC3CCCC3)c3c(-c4ccc5nc(C)oc5c4)c[nH]c3n2)c(OC)c1")
44
>>> value_measured("Cn1ncnc1[C@H]1c2n[nH]c(=O)c3cc(F)cc(c23)N[C@@H]1c1ccc(F)cc1 + CN1CCN(c2cc(C(=O)Nc3cc4cc(-c5cnn(C)c5)ccc4cn3)ccn2)CC1")
1.91
>>> value_measured("CCc1c2c(nc3ccc(O)cc13)-c1cc3c(c(=O)n1C2)COC(=O)[C@]3(O)CC + CN1CCN(c2cc(C(=O)Nc3cc4cc(-c5cnn(C)c5)ccc4cn3)ccn2)CC1")
4.99
>>> value_measured("COc1c(OCCCN2CCOCC2)ccc2c3n(c(=NC(=O)c4cnc(N)nc4)nc12)CCN3 + CN1CCN(c2cc(C(=O)Nc3cc4cc(-c5cnn(C)c5)ccc4cn3)ccn2)CC1")
2.64
